Source listed as PubChem BioAssay (NCI).

// values below are reported GI50
System: U251 CNS
observed_property: GI50

1. CCCCCCCCCC[N+](C)(C)C | 1.04 µM
2. O=C(Nc1ccc(N2CCNCC2)cn1)c1[nH]ncc1Nc1ncnc2sccc12 | 1.62 µM
3. Cc1ccccc1C[P+](c1ccccc1)(c1ccccc1)c1ccccc1 | 1.35 µM
4. COc1cc2c(cc1OC)-c1ncc3cc(OC)c(OC)c(OC)c3c1C2 | 36.8 µM
5. CCCC(=O)Nc1c(I)cc(I)c(CC(CC)C(=O)O)c1I (stereo not drawn) | > 100 µM
6. CC(C)c1cc(C(=O)[O-])c(O)c(C(C)C)c1.CC(C)c1cc(C(=O)[O-])c(O)c(C(C)C)c1.CC(C)c1cc(C(=O)[O-])c(O)c(C(C)C)c1.CC(C)c1cc(C(=O)[O-])c(O)c(C(C)C)c1.CC(C)c1cc(C(=O)[O-])c(O)c(C(C)C)c1.CC(C)c1cc(C(=O)[O-])c(O)c(C(C)C)c1.[Cu+2].[Mn+2].[Mn+2] | 9.43 µM
7. C#CCN(Cc1nc2cc(C(F)(F)F)ccc2nc1-c1ccccc1)c1ccc(F)cc1 | 38 µM
8. COC(=O)[C@H](Cc1cn(C)cn1)NC(=O)[C@@H](NC(=O)Nc1cc(C(F)(F)F)cc(C(F)(F)F)c1)C(C)(C)C | > 10 µM

====

Tested on: PC-3 prostate
assay_details: NCI tumour cell line growth inhibition, 48 h
observed_property: TGI

1. N#Cc1c2ccc([N+](=O)[O-])cc2c(=O)n2c1sc1ccccc12 | 43.9 µM
2. Cc1cc(C)c(O)c(CNCCCNCc2cc(C)cc(C)c2O)c1 | 19.8 µM
3. COC(=O)CCCNC(=O)C(=O)c1c(O)c(O)c(C(C)C)c2cc(C)c(-c3c(C)cc4c(C(C)C)c(O)c(O)c(C(=O)C(=O)NCCCC(=O)OC)c4c3O)c(O)c12 | 8.65 µM
4. COc1ccc(C(=O)N(Cc2cccnc2)C(=S)N(Cc2cccnc2)C(=O)c2ccc(OC)cc2)cc1 | > 100 µM
5. CS(=O)(=O)CCC(N)P(=O)(O)O (centres undefined) | > 100 µM
6. COc1ccc(S(=O)(=O)Nc2ccc(-c3csc(N4C(=O)/C(=C/c5cccs5)N=C4c4ccccc4)n3)cc2)cc1Cl | > 100 µM
7. O=C1NC(N2CCCCC2)=N/C1=C\c1ccccc1 | > 100 µM
8. COc1ccc2[nH]c3c(C)c4ncccc4c(C)c3c2c1 | > 10 µM
9. COC(=O)/C=C/c1cnc2c(c1)oc(=O)n2C | > 100 µM
10. S=C1SCN(C2CCCCCCCCCCC2)CN1C1CCCCCCCCCCC1 | > 100 µM
11. COC(=O)[C@]1(Cc2ccc3ccccc3c2)CCCCCCN1C(=O)c1ccccc1 | > 45.7 µM
12. CCN(CC)CCC(=O)N1C/C(=C/c2ccccc2)C(=O)/C(=C\c2ccccc2)C1 | 2.9 µM
13. Brc1ccc(C2CC3(c4ccccc4)ON=C(c4ccccc4)N3c3ccccc3S2)cc1 (centres undefined) | > 100 µM
14. CCCCCCC(=O)c1ccc2ccccc2c1O | > 100 µM
15. COc1ccc(C(=O)c2cc(C)c(OC)c(C)c2)c(OC)c1N(C(=O)CCl)C(=O)CCl | 18.4 µM
16. FC(F)(F)C1(c2ccccc2)SCc2nc3ccccc3n21 (centres undefined) | > 100 µM
17. CCOc1cc(/C=C2\N=C(c3ccccc3)N(c3nc4ccccc4s3)C2=O)ccc1O | 79.4 µM
18. CN(C)C1C(=O)C(C(N)=O)=C(O)C2(O)C(=O)C3=C(O)c4c(O)cccc4C(C)(O)C3CC12 (centres undefined) | > 100 µM
19. C[C@H]1[C@H](C)CC[C@]2(C(=O)OC3OC(CO)C(O)C(O)C3O)CC[C@]3(C)C(=CC[C@@H]4[C@@]5(C)C[C@@H](O)[C@@H]6OC(=O)c7cc(O)c(O)c(O)c7-c7c(cc(O)c(O)c7O)C(=O)OC[C@]6(CO)[C@@H]5CC[C@]43C)[C@H]12 (some centres undefined) | > 100 µM
